FYI, the data here is from patent US12319655B2.

Let's look at some molecules and their measured IC50.
# tested target: B-Raf (V600E) (SEQ. ID NO: 4) kinase (Homo sapiens (Human), UniProt P15056, V600E)
# Sequence (P15056 416-766 V600E): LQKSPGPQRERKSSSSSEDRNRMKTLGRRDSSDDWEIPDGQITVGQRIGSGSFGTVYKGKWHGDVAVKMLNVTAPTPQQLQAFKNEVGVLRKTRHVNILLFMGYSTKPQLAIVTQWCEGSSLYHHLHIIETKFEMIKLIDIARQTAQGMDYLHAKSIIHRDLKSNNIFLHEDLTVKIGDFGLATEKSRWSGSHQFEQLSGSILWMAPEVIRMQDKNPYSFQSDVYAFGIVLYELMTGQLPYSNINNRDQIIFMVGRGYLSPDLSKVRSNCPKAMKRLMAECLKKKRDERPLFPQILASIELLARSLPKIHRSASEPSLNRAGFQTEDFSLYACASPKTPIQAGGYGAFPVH
# experimental details: Biochemical Assay for B-Raf (V600E) (1)
# study conditions: Table J, BRAF V600E, biochemical assay (1); read-out: BRAF VE (1)

>>> df
                            chemical_string  reported_measurement
0  COC(=O)Nc1cc(-c2nccc(-c3cc(NC(=O)c4ccnc(C(C)(C)F)c4)ccc3C)n2)ccn1              ≤ 100 nM

stdin: Supply recorded IC50 for COC(=O)Nc1cc(-c2cncc(-c3cc(NC(=O)c4ccnc(C(C)(C)F)c4)ccc3C)c2)ccn1 here.
stdout: ≤ 100 nM

stdin: Assign IC50 to the following record: Cc1ccc(NC(=O)c2ccnc(C(C)(C)F)c2)cc1-c1cncc(-c2cc(NC(=O)C3CC3)ncn2)c1
stdout: ≤ 100 nM

stdin: Please give the documented IC50 of CNC(=O)c1cc(-c2cnnc(-c3cc(NC(=O)CCC4(F)CC4)cnc3C)c2)ccn1
stdout: 1000 to 10000 nM
